target: RSV postfusion F (postF, F deltaFP) (Respiratory syncytial virus); experiment: BLI, IgG on sensor, 100 nM antigen
Kd: recorded values
// note: answer is a bare numeric in nM

{"columns": ["binder", "Kd (nM)"],
 "data": [
  ["ADI-41318 (antibody, V domains shown) VH: EVQLLESGAEVKKPGSSVRVSCKAFGGTFSSYAFSWVRQAPGQGLEWMGGITPMFGTENYAPNFQGRVTITADKLTTTVYMELSRLRSEDSAVYYCAREGGRLGTTMGAFDMWGQGTMVTVSS VL: DIRLTQSPSSLSASVGDRVTITCRASHGISSALAWYQQRPGRVPQVLIFHASTLESGVPSRFSGSGSGTDFTLTISSLQPEDFATYYCQQFNSYPYTFGQGTKVEIK", 35.4]
]}

Pending binder:
Query: For ADI-41277 (antibody, V domains shown) VH: QVQLQESGPGLVKPSGTLSLTCAVSGGSITGRNWWSWVRQPPGKELERIGEIYHGGSTEYNPSLKGRVTISVDKSKNQFSLRLNSVTAADTAVYYCARVAHYDSNGYYIGYFDLWGRGTLVTVSS VL: EIVLTQSPPSLSASVGDRVTITCRASQSISIYLNWYQQKPGKAPKLLIFAASSLQSGVPLRFSGSGSGTDFTLTISSLQPEDFATYYCHQSYSAPWTFGQGTKVDIK , what is its reported Kd?
Reply: 0.78
